assaySystem: BRD4 bromo domain 1 [BRD4(1)] (Homo sapiens)
Construct: N-terminally His6-tagged BRD4(1) (amino acids 67-152)
assayNotes: BRD4(1)/acetylated peptide H4 TR-FRET binding assay
testParameters: His6-BRD4(1) (aa 67-152) vs acetylated histone H4 peptide
pIC50: −log10 of the molar value.
measure: pIC50

* CCS(=O)(=O)c1ccc(Oc2ccc(F)cc2)c(Nc2ccc3c(n2)N(C2CCN(C)CC2)[C@H](C)C(=O)N3C)c1 | 6.02
* CC(C)S(=O)(=O)c1cccc(Nc2ccc3c(n2)N(C2CCN(CCC(F)(F)F)CC2)[C@H](C)C(=O)N3C)c1 | 7.70
* COc1ccc(S(=O)(=O)C(C)C)cc1Nc1ccc2c(n1)N(C1CCNCC1)[C@H](C)C(=O)N2C | 7.72
* CCS(=O)(=O)c1ccc(Oc2ccccc2)c(Nc2ccc3c(n2)N(C2CCN(C)CC2)[C@H](C)C(=O)N3C)c1 | 7.82
* COc1ccc(S(=O)(=O)C(C)C)cc1Nc1ccc2c(n1)N(C1CCOCC1)[C@H](C)C(=O)N2C | 7.60
* COc1ccc(S(C)(=O)=O)cc1Nc1ccc2c(n1)N(C(C)C)[C@H](C)C(=O)N2C | 6.76
* C[C@@H]1C(=O)N(C)c2ccc(Nc3cccc(S(=O)(=O)C4CC4)c3)nc2N1C1CCOCC1 | 7.62
